# Test system: Mus musculus
# PROTOCOL DESCRIPTION: Activity was evaluated in C57BL/10 mice by Morris water Maze test and mean latency for TRH was reported at 0.01 mg/Kg i.p. dosage.
# Assay type: functional
// label = Met if Mean latency is not less than 40 s, otherwise Not met

Problem: Is reported Mean latency greater than or equal to 40 s here: C[C@H]1C[C@@H](CC(N)=O)C[C@@H](C[C@@H]2CCC(=O)N2)C1
Solution: Met

Problem: Does NC(=O)C[C@@H]1C[C@@H](Cc2c[nH]cn2)C[C@H](C[C@@H]2CCC(=O)N2)C1 have a reported Mean latency of at least 40 s?
Solution: Met

Problem: Exam item: decide whether the reported Mean latency for C[C@H]1C[C@@H](CC(N)=O)C[C@@H](C[C@@H]2CCC(=O)N2Cc2ccccc2)C1 is at least 40 s.
Solution: Not met

Others:
Problem: Would you say NC(=O)[C@@H]1CCCN1C(=O)[C@H](Cc1c[nH]cn1)NC(=O)[C@@H]1CCC(=O)N1 shows Mean latency at minimum 40 s?
Solution: Not met

Problem: Record NC(=O)C[C@@H]1C[C@H](Cc2c[nH]cn2)C[C@H](C[C@@H]2CCC(=O)N2)C1 ; criterion: Mean latency no lower than 40 s. Met?
Solution: Not met
